assay: self-splicing fitness, log relative to wild type (ln ratio); higher = more splicing; Tetrahymena group I intron in knt gene, E. coli kanamycin selection, DiMSum; sequences stand for … in CUCUCU…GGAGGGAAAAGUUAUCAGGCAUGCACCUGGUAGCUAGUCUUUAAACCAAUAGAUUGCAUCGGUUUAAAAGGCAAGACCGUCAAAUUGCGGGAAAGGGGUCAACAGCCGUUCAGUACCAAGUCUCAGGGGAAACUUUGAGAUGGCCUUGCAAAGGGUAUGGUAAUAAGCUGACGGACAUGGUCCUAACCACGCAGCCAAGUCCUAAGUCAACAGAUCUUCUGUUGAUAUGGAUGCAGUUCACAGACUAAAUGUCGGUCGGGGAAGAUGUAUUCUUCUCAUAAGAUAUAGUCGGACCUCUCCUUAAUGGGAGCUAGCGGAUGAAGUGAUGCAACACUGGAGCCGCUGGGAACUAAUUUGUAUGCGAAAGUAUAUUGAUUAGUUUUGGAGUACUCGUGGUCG; details: 37 °C;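 note: selection with 25 µg/mL kanamycin versus none on LB agar overnight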
Binning scheme for self-splicing fitness (ln): low (below -2), mid (-2 to below -1), high (-1 or more)

Previously resolved entries follow.
UGCCAGCAAUAUUACGUAUA mid
UGGAAGCAAUAUUACGCGGA mid
UCGUAGCAAUAUUACGGUUC low

Ask: The entry to classify is AUCAAGCAAUAUUACGCUCC ; which class holds it?
Reply: mid

Ask: Lab note: which band did CCGCAGCAAUAUUACGGUCG land in?
Reply: high

Ask: Bin? UUCGAGCAAUAUUACGAGCU
Reply: low

Ask: Band of UAAAAGCAAUAUUACGUGUC ?
Reply: low

Ask: Class (by measured self-splicing fitness (ln)) for GGGGAGCAAUAUUACGCUUA
Reply: mid

Ask: # bin lookup: classify GAAGAGCAAUAUUACGGUGG by its self-splicing fitness (ln)
Reply: low

Ask: Please indicate the class for CCGCAGCAAUAUUACGACUG based on its self-splicing fitness (ln).
Reply: mid

Ask: Bin? AAUGAGCAAUAUUACGGGAA
Reply: low

Ask: Returns: class label. Input: UGUCAGCAAUAUUACGCGCC
Reply: high

Ask: Input CGAUAGCAAUAUUACGCGGG ; output its category
Reply: low

Ask: Band of GGUCAGCAAUAUUACGUGUA ?
Reply: high

Ask: Sort into band: UCAGAGCAAUAUUACGAUUU
Reply: mid

Ask: Input UACCAGCAAUAUUACGCGAU ; output its category
Reply: high
